# SYSTEM NAME: Estrogen receptor (Homo sapiens)
# ASSAY METHOD TEXT: qHTS assay to identify small molecule antagonists of the estrogen receptor alpha (ER-alpha) signaling pathway (AID 743069)
# DETAILS: HEK293 ER-alpha-UAS-bla, beta-lactamase ratio, antagonist mode; series mostly up to 69.4 µM
Calls of active or inactive are those of the source. Calls come from the whole dose curve; as a rule, active = well fitted curve in the direction sought with a large enough effect in the signal ratio in the repeat runs (not every such curve was filed as active); inconclusive = weak or mixed curves, or effect the other way; inactive = no such curve, though single readings can be large or run the other way; the % refers to the signal ratio.
Labels: yes for active, no for inactive

INSERT INTO assay_data (molecule, label_class) VALUES
  ('CCC(=O)OCCc1ccccc1', 'no'),
  ('O=C(O)Cc1ccc(OCCNC[C@H](O)c2ccccc2)cc1', 'no'),
  ('CC1=C(/C=C/C(C)=C/C=C/C(C)=C/C(=O)Nc2ccc(O)cc2)C(C)(C)CCC1', 'yes'),
  ('Cc1ccc(N)cc1O', 'no'),
  ('CCCSS/C(CCO)=C(\C)N(C=O)Cc1cnc(C)nc1N', 'no'),
  ('C=CC(C)(CCC=C(C)C)OC(=O)/C=C/c1ccccc1 (centres undefined)', 'no'),
  ('CCCCCCCCCCOCC(O)CN (centres undefined)', 'no'),
  ('CCCCCCCCCCCCOC(=O)c1cc(O)c(O)c(O)c1', 'yes'),
  ('CCCC(CC)CCCCCCCN (centres undefined)', 'no');

###

# ASSAY METHOD TEXT: qHTS assay for small molecule activators of the heat shock response signaling pathway - cell viability counter screen (AID 743209); note: nearly all actives have a fitted effect of over 50% in size; note: potency is the fitted concentration of half-maximal effect
# DETAILS: HSE-bla HeLa viability, CellTiter-Glo luminescence, 5 h; series mostly up to 62.6 µM
Records with an inconclusive call do not appear. Active and inactive are the calls of the source. Calls come from the whole dose curve; as a rule, active = well fitted cell-killing curve with a large enough effect in the repeat runs; inconclusive = weak or mixed curves, or effect the other way; inactive = no such curve, though single readings can be large or run the other way.
MEASURED ATTRIBUTE: Potency

INSERT INTO results (compound, measured_attribute, value_reported) VALUES
  ('CCCCCCC(C)Nc1ccc(Nc2ccccc2)cc1 (centres undefined)', 'Potency', '49 µM (active)'),
  ('NCCCCCCNCCCCCCN', 'Potency', 'inactive'),
  ('CC(C)c1ccc(O)c(C(C)C)c1', 'Potency', 'inactive'),
  ('O=C1C=CC(=O)N1c1ccccc1', 'Potency', '21.9 µM (active)'),
  ('Nc1ncnc2c1ncn2[C@@H]1O[C@H](COP(=O)(O)O)[C@@H](O)[C@H]1O', 'Potency', 'inactive'),
  ('C(=C/c1ccccc1)/c1ccccc1', 'Potency', 'inactive'),
  ('CC(C)(c1cc(Br)c(OCCO)c(Br)c1)c1cc(Br)c(OCCO)c(Br)c1', 'Potency', '17 µM (active)'),
  ('CCN(CC)CCCN(c1ccccc1)C1Cc2ccccc2C1', 'Potency', 'inactive'),
  ('CO[C@H]1C=CO[C@@]2(C)Oc3c(C)c(O)c4c(O)c(cc(O)c4c3C2=O)NC(=O)/C(C)=C\C=C/[C@H](C)[C@H](O)[C@@H](C)[C@@H](O)[C@@H](C)[C@H](OC(C)=O)[C@@H]1C', 'Potency', 'inactive'),
  ('CCCSS/C(CCO)=C(\C)N(C=O)Cc1cnc(C)nc1N', 'Potency', 'inactive'),
  ('O=C(O)CC(=O)O', 'Potency', 'inactive'),
  ('NC(=O)c1ccccc1N', 'Potency', 'inactive'),
  ('CCCCC(CC)COC(=O)c1ccc(O)cc1 (centres undefined)', 'Potency', '24.5 µM (active)'),
  ('CCCCCCCCCCCCCCNCCO', 'Potency', 'inactive'),
  ('Oc1ccc(-c2ccccc2)c(Cl)c1', 'Potency', 'inactive'),
  ('O=C1OC(=O)c2cccc3cccc1c23', 'Potency', 'inactive'),
  ('CN(C)CCOC(c1ccccc1)c1ccccc1 (tested in a mixture with another compound)', 'Potency', 'inactive'),
  ('CCN(CC)CCOc1ccc(C(O)(Cc2ccc(Cl)cc2)c2ccc(C)cc2)cc1 (centres undefined)', 'Potency', 'inactive'),
  ('Cc1c(C(=O)O)cccc1[N+](=O)[O-]', 'Potency', 'inactive'),
  ('NCCCC(O)(P(=O)(O)O)P(=O)(O)O', 'Potency', 'inactive'),
  ('C=C[C@](C)(O)CC[C@@H]1[C@@]2(C)CCCC(C)(C)[C@@H]2CC[C@@]1(C)O', 'Potency', '43.6 µM (active)'),
  ('CC1CCCCN1CCCOC(=O)c1ccc(OC2CCCCC2)cc1 (centres undefined)', 'Potency', 'inactive'),
  ('CN1[C@@H]2CC[C@H]1CC(OC(=O)C(CO)c1ccccc1)C2 (some centres undefined)', 'Potency', 'inactive'),
  ('O=C1NCCN1CCN1CCC(c2cn(-c3ccc(F)cc3)c3ccc(Cl)cc23)CC1', 'Potency', 'inactive');

###

# ASSAY METHOD TEXT: qHTS assay to identify small molecule antagonists of the estrogen related receptor (ERR) signaling pathway from Tox21 library (AID 1224848); note: nearly all actives have a fitted effect of over 50% in size
# DETAILS: ERR reporter cell line, luciferase antagonist mode, 18 h; series mostly up to 92.4 µM
Records with an inconclusive call do not appear. Active and inactive are the calls of the source. Calls come from the whole dose curve; as a rule, active = well fitted inhibition curve with a large enough effect in the repeat runs; inconclusive = weak or mixed curves; inactive = no such curve, though single readings can be large or run the other way.
Labels: active, inactive

INSERT INTO results (compound, label_class) VALUES
  ('Cc1oc(-c2ccccc2)nc1CCOc1ccc(C[C@H](Nc2ccccc2C(=O)c2ccccc2)C(=O)O)cc1', 'inactive'),
  ('C#CC(O)CCC (stereo not given)', 'inactive'),
  ('CS(C)(=O)=O', 'inactive'),
  ('Cc1ccc(O)cn1', 'inactive'),
  ('CCC(C)(C)c1cc(O)c(C(C)(C)CC)cc1O', 'active');

###

# ASSAY METHOD TEXT: qHTS assay to identify small molecule antagonists of the estrogen related receptor (ERR) signaling pathway from Tox21 library - cell viability counter screen (AID 1224834); note: nearly all actives have a fitted effect of over 30% in size
# DETAILS: ERR reporter cells viability, CellTiter-Fluor, 17.5 h; series mostly up to 92.4 µM
Results filed as inconclusive are left out. The source made the active and inactive calls. Calls follow the shape of the dose curve; as a rule, active = well fitted cell-killing curve with a large enough effect in the repeat runs; inconclusive = weak or mixed curves; inactive = flat fitted curve, though single readings scatter.
Outcomes: 1 for active, -1 for inactive

INSERT INTO results (molecule, label_class) VALUES
  ('CCCC(O)C(O)CO (stereo not drawn)', -1),
  ('Clc1ccc(C(c2ccccc2Cl)C(Cl)Cl)cc1 (stereo not drawn)', -1),
  ('O=C1OC(=O)c2ccc3c4c(ccc1c24)C(=O)OC3=O', -1),
  ('CCC1CCCCC1', -1),
  ('C=C(C)CCCC', -1),
  ('CN1CN(C)CN(C)C1', -1),
  ('CCOC(=O)COc1ccc(C)cc1', -1),
  ('Cc1cn[nH]c1', -1),
  ('[O]=[Zr]', -1),
  ('CNC(=O)c1cc(Oc2ccc(NC(=O)Nc3ccc(Cl)c(C(F)(F)F)c3)cc2)ccn1', 1),
  ('Cn1cccc1', -1),
  ('O=CC1CC1', -1),
  ('CCNc1nc(NC(C)CC)nc(OC)n1 (stereo not drawn)', -1),
  ('Cc1cc(=O)[nH]c(=O)[nH]1', -1),
  ('CN(C)CCN1CCOCC1', -1),
  ('O=C[C@H](O)[C@H](O)[C@H](O)CO', -1),
  ('CCCCCCCC/C=C/CCCOC(C)=O', -1),
  ('C/C=C/C(=O)C1=C(C)CCCC1(C)C', -1),
  ('O=C(O)CC(=O)O', -1),
  ('CCOC(=O)[C@@](C)(N)Cc1ccc(O)c(O)c1', -1),
  ('Clc1cc(Cl)c(-c2c(Cl)c(Cl)cc(Cl)c2Cl)cc1Cl', -1),
  ('CC[N+](CC)(CC)Cc1ccccc1', -1),
  ('O=C(Nc1ccc(Cl)c(Cl)c1)c1cc(Cl)cc(Cl)c1O', 1),
  ('C(=C/c1ccccc1)/c1ccccc1', -1),
  ('CCCCC(CC)COC(=O)c1ccc(O)cc1 (stereo not drawn)', 1),
  ('CCCCCCCC/C=C\CCCCCCCC(=O)OCCOC(=O)CCCCCCC/C=C\CCCCCCCC', -1),
  ('C/C=C/C(=O)Oc1c(CCCCCC(C)C)cc([N+](=O)[O-])cc1[N+](=O)[O-]', 1),
  ('CC(C)=CCCC(C)O (stereo not drawn)', -1),
  ('CC(C)(C)c1cc(CCC(=O)NCCCCCCNC(=O)CCc2cc(C(C)(C)C)c(O)c(C(C)(C)C)c2)cc(C(C)(C)C)c1O', -1),
  ('CC1CCCNC1 (stereo not drawn)', -1),
  ('CCC(C)C(=O)OC (stereo not drawn)', -1),
  ('C=CC/C=C/C/C=C/C/C=C/C', -1),
  ('Clc1ccc(C(Cn2ccnc2)OCc2ccsc2Cl)c(Cl)c1 (stereo not drawn)', 1);

###

# ASSAY METHOD TEXT: qHTS assay to identify small molecule agonists of the RXR signaling pathway - cell viability counter screen (AID 1159529); note: nearly all actives have a fitted effect of over 50% in size
# DETAILS: RXR-alpha-bla HEK293T viability, CellTiter-Glo, 16 h; series mostly up to 76.8 µM
Results filed as inconclusive are left out. Calls of active or inactive are those of the source. Calls follow the shape of the dose curve; as a rule, active = well fitted cell-killing curve with a large enough effect in the repeat runs; inconclusive = weak or mixed curves, or effect the other way; inactive = no such curve, though single readings can be large or run the other way.
Possible outcomes: class 1 = active, class 0 = inactive

INSERT INTO results (compound, label_class) VALUES
  ('CC(C)=CCCC(C)CCOC(=O)C(C)C (stereo unspecified)', 'class 0'),
  ('CCCCCCC(C)OC(=O)COc1nc(F)c(Cl)c(N)c1Cl (stereo unspecified)', 'class 1'),
  ('COc1cccc(OC)c1O', 'class 0'),
  ('COc1ccccc1C=O', 'class 0'),
  ('CCN(CC)CCNc1ccc(CO)c2sc3ccccc3c(=O)c12', 'class 1'),
  ('CCc1cccc(C)c1', 'class 0'),
  ('CCO[Si](CCCSSSSCCC[Si](OCC)(OCC)OCC)(OCC)OCC', 'class 1'),
  ('SCCCCCCCCS', 'class 0'),
  ('Cc1cccc(Br)c1', 'class 1'),
  ('COc1ccc(C#N)cc1', 'class 0'),
  ('CCOC(=O)CN', 'class 0'),
  ('CC(CN(C)C)CN1c2ccccc2CCc2ccccc21 (stereo unspecified)', 'class 1'),
  ('COCC(=O)O[C@]1(CCN(C)CCCc2nc3ccccc3[nH]2)CCc2cc(F)ccc2[C@@H]1C(C)C', 'class 1'),
  ('OCCCS', 'class 0'),
  ('CCNc1nc(NC(C)CC)nc(OC)n1 (stereo unspecified)', 'class 0'),
  ('S=C(SSSSSSC(=S)N1CCCCC1)N1CCCCC1', 'class 1'),
  ('CCCCCCCCCCc1ccccc1', 'class 0'),
  ('COc1cccc(CCc2ccccc2OCC(CN(C)C)OC(=O)CCC(=O)O)c1 (stereo unspecified)', 'class 0'),
  ('CSc1c(Cl)c(Cl)c(Cl)c(Cl)c1Cl', 'class 1'),
  ('c1ccc2c(c1)CCC2', 'class 0'),
  ('CCCCCCCCCCCCCOP(=O)(O)O', 'class 0');

Recorded values, source PubChem BioAssay (Tox21).
